- Tested system: MERTK (UniProt Q12866)
- Sequence (Q12866 whole entry, looked up): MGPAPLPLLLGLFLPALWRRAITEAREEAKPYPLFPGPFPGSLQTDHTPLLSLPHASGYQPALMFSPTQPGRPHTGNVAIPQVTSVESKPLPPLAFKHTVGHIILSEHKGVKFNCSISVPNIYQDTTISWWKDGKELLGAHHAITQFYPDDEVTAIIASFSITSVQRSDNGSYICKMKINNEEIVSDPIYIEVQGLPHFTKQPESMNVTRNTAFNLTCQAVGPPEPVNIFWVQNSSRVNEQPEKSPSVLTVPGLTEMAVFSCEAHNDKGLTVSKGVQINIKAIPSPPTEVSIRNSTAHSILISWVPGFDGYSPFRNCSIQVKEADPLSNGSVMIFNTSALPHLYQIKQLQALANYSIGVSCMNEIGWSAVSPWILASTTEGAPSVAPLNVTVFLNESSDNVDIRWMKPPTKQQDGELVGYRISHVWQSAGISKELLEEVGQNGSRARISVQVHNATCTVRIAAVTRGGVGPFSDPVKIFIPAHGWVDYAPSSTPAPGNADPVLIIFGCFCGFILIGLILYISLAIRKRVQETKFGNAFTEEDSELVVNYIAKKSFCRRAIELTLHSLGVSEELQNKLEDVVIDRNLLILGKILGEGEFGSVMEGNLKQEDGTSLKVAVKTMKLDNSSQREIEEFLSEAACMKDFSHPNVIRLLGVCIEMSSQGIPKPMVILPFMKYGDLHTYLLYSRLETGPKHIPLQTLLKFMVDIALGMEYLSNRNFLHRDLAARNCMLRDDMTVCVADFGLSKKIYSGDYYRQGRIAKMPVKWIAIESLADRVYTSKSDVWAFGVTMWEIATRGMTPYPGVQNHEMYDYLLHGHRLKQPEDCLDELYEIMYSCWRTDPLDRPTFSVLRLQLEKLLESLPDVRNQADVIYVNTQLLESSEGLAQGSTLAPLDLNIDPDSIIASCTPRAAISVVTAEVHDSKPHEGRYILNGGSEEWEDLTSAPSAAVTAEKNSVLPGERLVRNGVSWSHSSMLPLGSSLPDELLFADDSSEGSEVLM
- Protocol details: phosphorylation enrichment, bacterial display (enrichment ratio); higher = better substrate or ligand; peptides without Tyr show the background;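 also: 11-residue human phosphosite peptides and single-mutation variants displayed on the E. coli surface, counted by deep sequencing, each peptide's frequency after selection divided by its frequency in the unselected input library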;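 also: frequency after pTyr selection over input frequency; kinase dosed for 20-30% of maximal phosphorylation in three min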
Assay metric: phosphorylation enrichment
Keep the answer to the number alone.

The cases that follow already have their phosphorylation enrichment on record.
EQKKFYNAMKN [SCN5A_Y1495_K1500N_YF] ... 0.458
ALDRPYTSKHS [NANS_Y71_E68D] ... 0.448
KEEEDYKEENN [BMS1_Y651] ... 0.422
AIIGIYILRDN [CDH23_Y2949_D2954N] ... 0.423

Record lookup: for MERTK (UniProt Q12866), what phosphorylation enrichment belongs to INNIDYYKNTT [FGFR2_Y656_K659N] ?
0.428

Fill in the recorded phosphorylation enrichment for this sequence, with MERTK (UniProt Q12866) as test system: YKWAVYCIIGR [NUP93_Y391_R388W]
0.953

API: value(readout=phosphorylation enrichment, system=MERTK (UniProt Q12866)) for record YRQNGYIPGSN [PCDHGA1_Y895_V894G]
0.405

###

- System: c-Abl (mouse)
- Protocol details: phosphorylation enrichment, bacterial display (enrichment ratio); higher = better substrate or ligand; peptides without Tyr show the background
Assay metric: phosphorylation enrichment
Reply briefly: the number, and no unit.

Solved entries:
AFGTVYKGLWI [EGFR_Y727] ... 0.724
NKPTVCGVSPN [ABL1_Y226_Y226C] ... 0.996
LVMFFYAIFGM [SCN1A_Y1684_I1683F] ... 0.937
VKANTYEKFWP [GATM_Y100_YF] ... 0.704
TFGVVYKARNK [CDK2_Y19_YF] ... 0.565
LDTFIYDAAVL [GRIN2A_Y730_A727T] ... 7.38
ESDGAYIQRMQ [CCDC137_Y125_H127Q] ... 0.599
SDVLSYGVTMW [ZAP70_Y525_W523L] ... 0.645

Please give the measured phosphorylation enrichment for this sequence: `KINKMYSDRAM`
0.467

Could you share which phosphorylation enrichment value was measured for SGSIHYSHVPR [GLB1_Y57_R59H] ?
0.658

I am curious: what phosphorylation enrichment value has been reported for LSVEIHDRREF [ITGB7_Y753_Y753H_YF] ?
0.86

Given NAPNSYGRRPS [CDKN2A_Y44_I49S] , state its recorded phosphorylation enrichment.
0.63

Quick one: phosphorylation enrichment of PIDLYYLMDLS [ITGB2_Y131] ?
1.09

# input sequence: IGERTYGQVFK [CDK13_Y716_G714R_YF] ; wanted: its phosphorylation enrichment
0.474

###

# phosphorylation enrichment listing for each entry below
- Tested system: Fes (UniProt P07332)
- Sequence (P07332 whole entry, looked up): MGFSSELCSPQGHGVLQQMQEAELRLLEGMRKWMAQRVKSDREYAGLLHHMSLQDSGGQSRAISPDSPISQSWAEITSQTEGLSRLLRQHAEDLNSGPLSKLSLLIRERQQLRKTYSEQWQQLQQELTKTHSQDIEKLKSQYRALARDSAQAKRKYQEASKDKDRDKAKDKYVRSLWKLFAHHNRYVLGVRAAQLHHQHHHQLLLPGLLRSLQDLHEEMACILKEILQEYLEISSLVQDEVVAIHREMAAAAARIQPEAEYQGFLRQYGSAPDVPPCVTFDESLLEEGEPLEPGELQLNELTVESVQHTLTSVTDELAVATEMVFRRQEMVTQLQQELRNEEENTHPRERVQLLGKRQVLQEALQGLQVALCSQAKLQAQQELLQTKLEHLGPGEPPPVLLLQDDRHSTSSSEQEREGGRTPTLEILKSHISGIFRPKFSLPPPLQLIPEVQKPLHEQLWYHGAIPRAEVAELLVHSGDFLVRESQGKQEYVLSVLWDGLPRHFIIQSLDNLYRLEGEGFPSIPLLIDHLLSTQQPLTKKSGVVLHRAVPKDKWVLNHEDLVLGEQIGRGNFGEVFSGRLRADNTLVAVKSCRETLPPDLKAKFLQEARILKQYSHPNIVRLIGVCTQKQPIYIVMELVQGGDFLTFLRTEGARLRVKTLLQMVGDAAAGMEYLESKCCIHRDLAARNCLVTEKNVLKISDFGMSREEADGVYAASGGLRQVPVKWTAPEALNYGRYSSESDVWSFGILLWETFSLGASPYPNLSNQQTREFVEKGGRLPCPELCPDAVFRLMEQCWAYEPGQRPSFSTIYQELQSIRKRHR
- Protocol details: phosphorylation enrichment, bacterial display (enrichment ratio); higher = better substrate or ligand; peptides without Tyr show the background
Number only, no unit.

// worked examples, phosphorylation enrichment included
CDIPRYIVSQL [MAST2_Y461] ... 1.02
QLLIEYPPEEV [ZZZ3_Y670_K669E] ... 1.31
LRNIDYYRLDG [ATRX_Y2083] ... 1.58
HCEDGYPGGSD [CTNND1_Y221_Y217C] ... 1.81

Query phosphorylation enrichment on Fes (UniProt P07332) for SVTCTFSPALN [TP53_Y126_Y126F]
1.89

// fetch Fes (UniProt P07332) phosphorylation enrichment for IRKVLYANNVM [ACTA1_Y296_D294V]
0.599

For the record RQNNSYTCYTA [SLC20A2_Y386_R382Q] , what value of phosphorylation enrichment is listed for Fes (UniProt P07332)?
0.897

Requested read-out phosphorylation enrichment, target or system Fes (UniProt P07332), entry KDHPDYKYPPR [SOX10_Y171_Q174P]
0.601
